Target: T1, cyno PD-1 (soluble analyte in SPR) (cyno)
T1 construct: also called cynomolgus PD-1
Assay: SPR (ProteOn XPR36), mAb captured on anti-human IgG Fc, cyno PD-1 as analyte, 25 C
Listed next: entries and their corresponding koff.
recordedMetric: koff (s⁻¹)

binder: PD1B1092 (antibody, human IgG1, kappa, V domains shown, also called VH PD1H587; VL PD1L651) VH: QVQLVQSGSELKKPGASVKVSCKASGYTFTDYSMHWVRQAPGQGLEWMGWINIETGWPTYAQGFTGRFVFSLDTSVSTAYLQISSLKAEDTAVYFCARDYYGTYFYAMDYWGQGTLVTVSS VL: EIVLTQSPATLSLSPGERATLSCTASSSFSSSYLHWYQQKPGLAPRLLIYSTSNLASGIPDRFSGSGSGTDYTLTISRLEPEDFAVYYCHQYHRSPLTFGQGTKLEIKR
recordedResult: 0.000411

binder: PD1B1094 (antibody, human IgG1, kappa, V domains shown, also called VH PD1H586; VL PD1L652) VH: QVQLVQSGSELKKPGASVKVSCKASGYTFTDYSMHWVRQAPGQGLEWMGWINIETGHPTYAQGFTGRFVFSLDTSVSTAYLQISSLKAEDTAVYFCARDYYGTYFYAMDYWGQGTLVTVSS VL: EIVLTQSPATLSLSPGERATLSCTASSSVPSSYLHWYQQKPGLAPRLLIYSTSNLASGIPDRFSGSGSGTDYTLTISRLEPEDFAVYYCHQYHRSPLTFGQGTKLEIKR
recordedResult: 0.00162

binder: PD1B1086 (antibody, human IgG1, kappa, V domains shown, also called VH PD1H586; VL PD1L469) VH: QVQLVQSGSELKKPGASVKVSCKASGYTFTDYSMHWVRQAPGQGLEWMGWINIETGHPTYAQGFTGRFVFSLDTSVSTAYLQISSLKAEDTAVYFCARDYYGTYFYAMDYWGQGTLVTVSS VL: EIVLTQSPATLSLSPGERATLSCTASSSVSSSYLHWYQQKPGLAPRLLIYSTSNLASGIPDRFSGSGSGTDYTLTISRLEPEDFAVYYCHQYHRSPLTFGQGTKLEIKR
recordedResult: 0.00544
